Sourced from patent US8541576B2

measured-endpoint: IC50

Provide Full-length human PIM-1 (Homo sapiens) IC50 reading for "CN1CCN(c2ccc(Oc3ncc4ccc5c(C(N)=O)nn(C)c5c4n3)cc2)CC1" .
33 nM

Provide Full-length human PIM-1 (Homo sapiens) IC50 reading for CSc1ncc2ccc3c(C(N)=O)nn(C4CCC(N)CC4)c3c2n1 (centres unmarked) .
1 nM

Provide Full-length human PIM-1 (Homo sapiens) IC50 reading for CSc1ncc2c(n1)-c1c(c(C(N)=O)nn1C)CC2 [Ref. Compound 2, reference compound] .
1010 nM

Provide Full-length human PIM-1 (Homo sapiens) IC50 reading for "COc1ncc2ccc3c(C(N)=O)nn(C4CCNCC4)c3c2n1" .
154 nM

Provide Full-length human PIM-1 (Homo sapiens) IC50 reading for "CN(C)c1ncc2ccc3c(C(N)=O)nn(C(C)(C)C)c3c2n1" .
13 nM

Provide Full-length human PIM-1 (Homo sapiens) IC50 reading for Cn1nc(C(N)=O)c2c1-c1nc(N3CCCCC3)ncc1CC2 [Ref. Compound 1, reference compound] .
> 10000 nM

Provide Full-length human PIM-1 (Homo sapiens) IC50 reading for NC(=O)c1nn(C2CCC(N)CC2)c2c1ccc1cnc(-c3ccsc3)nc12 (centres unmarked) .
300 nM

Provide Full-length human PIM-1 (Homo sapiens) IC50 reading for "CN1CCN(c2ccc(Oc3ncc4ccc5c(C(N)=O)nn(C)c5c4n3)c(F)c2)CC1" .
116 nM

====

Please provide measured IC50 for the entries that follow.

Provide Full-length human PIM-2 (Homo sapiens, UniProt Q9P1W9) IC50 reading for CSc1ncc2c(n1)-c1c(c(C(N)=O)nn1C)CC2 [Ref. Compound 2, reference compound] .
> 10 µM

Provide Full-length human PIM-2 (Homo sapiens, UniProt Q9P1W9) IC50 reading for "CC(=O)c1cc(N2CCN(C)CC2)ccc1Oc1ncc2ccc3c(C(N)=O)nn(C)c3c2n1" .
> 1 µM

Provide Full-length human PIM-2 (Homo sapiens, UniProt Q9P1W9) IC50 reading for "CN1CCN(c2ccc(Oc3ncc4c(n3)-c3c(c(C(N)=O)nn3C)CC4)cc2)CC1" .
> 10 µM
